Answer each item with its documented Relative Release (fraction of positive control o.d.).
- experimental target: soluble HLA-DR1 (HLA-DR alpha truncated after Asn192 with a C-terminal nine amino acid HA epitope tail; HLA-DR1 beta truncated after Lys198), made in Baculovirus-infected insect cells (human)
- method summary: release ELISA: soluble HLA-DR1 tethered by 12CA5 and preloaded with biotin-hMBP(90-102); AE peptide 64 uM, 1 h 37 C, no unlabeled peptide; biotin still bound read by avidin-HRP (1.0 = PBS control, 0.0 = no DR1; low value = released)

Exam item: Give the measured Relative Release (fraction of positive control o.d.) of Ac-LRMKYPK-NH2 [AE235] .
Marked response: 0.79

Exam item: Give the measured Relative Release (fraction of positive control o.d.) of Ac-LRMKLPKPPKPV-NH2 [AE402] .
Marked response: 0.65

Exam item: Give the measured Relative Release (fraction of positive control o.d.) of Ac-LPKSAKPV-NH2 [AE405] .
Marked response: 0.11

Exam item: Give the measured Relative Release (fraction of positive control o.d.) of YRMKLPKSAKPVSQ [AE106] .
Marked response: -0.12
